Source of measurements: ChEMBL document CHEMBL1129493

Biological target: Dihydrofolate reductase (Homo sapiens)
Sequence (P00374 whole entry): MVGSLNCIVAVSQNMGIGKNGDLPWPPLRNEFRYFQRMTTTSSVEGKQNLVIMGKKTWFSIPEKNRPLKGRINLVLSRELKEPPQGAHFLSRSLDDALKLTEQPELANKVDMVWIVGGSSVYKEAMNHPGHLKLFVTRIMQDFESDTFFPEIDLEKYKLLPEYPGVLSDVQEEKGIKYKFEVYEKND
Assay: Inhibition of human recombinant Dihydrofolate reductase enzyme
assay_metric: Ki (pM)
Write the answer as a number in pM, unit excluded.

Reference set, count: 3
COc1cc(Cn2ccc3c4c(N)nc(N)nc4ccc32)cc(OC)c1OC :: 6
CCc1cc2c3c(N)nc(N)nc3ccc2n1C(CC)CC :: 0.2
CCc1cc2c3c(N)nc(N)nc3ccc2n1CC :: 10

Report Ki for Nc1nc(N)c2c(ccc3[nH]ccc32)n1
1000

Consider the molecule Cc1cc2c3c(N)nc(N)nc3ccc2n1C and give its recorded Ki.
87

# return recorded Ki for input Cc1cc2c3c(N)nc(N)nc3ccc2n1C(C)C
6.4

Name the recorded Ki of the molecule listed here: CCC(CC)n1ccc2c3c(N)nc(N)nc3ccc21
4.5

Specify Ki for CCC(CC)n1c(C)cc2c3c(N)nc(N)nc3ccc21 and stop.
0.3
